Would you mind telling me the reported binding signal of each entry?
MEASURED ON: SALL4 ZFC4 G921D (HT-SELEX) (Mus musculus, UniProt Q8BX22 870-940, G921D)
Sequence: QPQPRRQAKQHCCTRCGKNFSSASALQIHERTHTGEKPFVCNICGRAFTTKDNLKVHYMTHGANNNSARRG
ASSAY SUMMARY: HT-SELEX; high values mean tight binding
EXPERIMENTAL PARAMETERS: protein: recombinant; vector His6-GST; dsDNA, one strand shown
One number for each entry, in fold-change vs cycle 0.

>>> reported_value("CGTCTA")
0.79
>>> reported_value("TAAGAA")
1.87
>>> reported_value("CGTCAG")
0.535
>>> reported_value("CTGTGC")
0.471
>>> reported_value("GCGAAC")
0.417
>>> reported_value("ACCTAT")
1.43

The following sequences each have a reported value; give each one's binding signal.
1. AAGCGC
2. AGAGCG
3. AGTACA
4. AACGCT
5. TGTACA

Output:
1. 0.302
2. 0.489
3. 1.35
4. 0.738
5. 1.26
